Label fulfilled when melting point < 100 °C; otherwise not fulfilled.

compound="C[P+]([O-])(CCCCN1C(=O)c2ccccc2C1=O)OCCCCN1C(=O)c2ccccc2C1=O (centres undefined)" group="not fulfilled"
compound=O=[N+]([O-])c1cc(C(F)F)c(Nc2ncc(C(F)(F)F)cc2Cl)c([N+](=O)[O-])c1 group=fulfilled
compound=CC(=O)C1=CCCCC1 group=fulfilled
compound=CCCCCCCCCCCC#N group=fulfilled
compound=COC(=O)CCc1ccc2c(c1)NC(=O)CC2 group="not fulfilled"
compound=NC(=S)c1ccno1 group="not fulfilled"
compound=COc1ccc(C(=O)c2noc(-c3ccc(Br)cc3)c2S(=O)(=O)c2ccccc2)cc1 group="not fulfilled"
compound=Oc1ccc(Cl)c(F)c1 group=fulfilled
compound="C=CC1C2=CCOC(=O)C2=COC1OC1OC(CO)C(O)C(O)C1O (centres undefined)" group="not fulfilled"
compound=Clc1c(Cl)c(Cl)c2c(c1Cl)Oc1ccccc1O2 group="not fulfilled"
compound="NS(=O)(=O)c1cc2c(cc1Cl)NC(C(Cl)Cl)NS2(=O)=O (centres undefined)" group="not fulfilled"
compound=Cc1cc(C)c(CCl)c(C)c1 group=fulfilled
compound=CC1=NC(=Cc2cccc3ccccc23)C(=O)O1 group="not fulfilled"
compound=ClCc1cc2c(cc1Cl)OCO2 group=fulfilled
compound=CC1=NCCN1 group="not fulfilled"

====

ATTRIBUTE MEASURED: melting point (°C)

molecule=FC12CC3CC(CC(C3)C1)C2 attribute_measured="melting point" bound_operator== quantitative_readout=225
molecule=Nc1ccccc1/C=C/c1cc(/C=C/c2cccc([N+](=O)[O-])c2)c([N+](=O)[O-])cc1[N+](=O)[O-] attribute_measured="melting point" bound_operator== quantitative_readout=250
molecule=Brc1ccc(Oc2ccccc2)c(Br)c1 attribute_measured="melting point" bound_operator=< quantitative_readout=20
molecule=O=C(Cl)c1ccc2nccnc2c1 attribute_measured="melting point" bound_operator== quantitative_readout=119
molecule="CCNC(=O)C(C)OC(=O)Nc1ccccc1 (stereo unspecified)" attribute_measured="melting point" bound_operator== quantitative_readout=119
molecule=Cc1ccc(/C=C(\C(N)=O)c2nc3ccccc3s2)cc1 attribute_measured="melting point" bound_operator== quantitative_readout=148
molecule=C(=C(c1ccccc1)c1ccccc1)=C(c1ccccc1)c1ccccc1 attribute_measured="melting point" bound_operator== quantitative_readout=140
molecule=CC(=O)Nc1ccc(C)cc1C attribute_measured="melting point" bound_operator== quantitative_readout=129
molecule=CCOC(=O)c1c(-c2ccccc2)csc1N attribute_measured="melting point" bound_operator== quantitative_readout=92
molecule=NC(=O)c1sc(Nc2ccccc2)nc1N attribute_measured="melting point" bound_operator== quantitative_readout=205
molecule=Cn1c(/C(C#N)=N/Nc2c(Cl)cc(Cl)cc2Cl)nc2ccccc21 attribute_measured="melting point" bound_operator== quantitative_readout=168
molecule=O=[N+]([O-])c1ccc(O)c2ncccc12 attribute_measured="melting point" bound_operator== quantitative_readout=180
molecule=OCc1c(F)ccc(F)c1Cl attribute_measured="melting point" bound_operator== quantitative_readout=47
molecule=O=C(CCc1ccccc1)NNc1ccccc1 attribute_measured="melting point" bound_operator== quantitative_readout=117
molecule="CC(=O)C1C(=O)c2ccccc2CC1c1ccccc1 (stereo unspecified)" attribute_measured="melting point" bound_operator== quantitative_readout=67
molecule=c1ccc2c(c1)-c1nc3ccccc3nc1-2 attribute_measured="melting point" bound_operator== quantitative_readout=203
molecule=COc1ccc(Cl)cc1I attribute_measured="melting point" bound_operator== quantitative_readout=48
molecule=COc1cc2cc[nH]c2cc1OC attribute_measured="melting point" bound_operator== quantitative_readout=157
molecule=CCOC(=O)N1COCc2c1ccc1cc3ccc(NC)c(CO)c3nc21 attribute_measured="melting point" bound_operator== quantitative_readout=146
molecule=COc1cccc(Nc2ccccc2)c1 attribute_measured="melting point" bound_operator== quantitative_readout=73
molecule="CC1CC2C3CCC4=CC(=O)C=CC4(C)C3(F)C(O)CC2(C)C1C(=O)CO (stereo unspecified)" attribute_measured="melting point" bound_operator== quantitative_readout=217
molecule=O=C(c1ccccc1)c1ccccc1N=Nc1ccccc1C(=O)c1ccccc1 attribute_measured="melting point" bound_operator== quantitative_readout=205
molecule=c1ccc(-c2cccc3cccc(-c4ccccc4)c23)cc1 attribute_measured="melting point" bound_operator== quantitative_readout=147
molecule="CCCC(C)CC(C)O (stereo unspecified)" attribute_measured="melting point" bound_operator== quantitative_readout=-102
molecule=O=C=Nc1ccccc1 attribute_measured="melting point" bound_operator== quantitative_readout=-31.3
molecule=C/C(=N\Nc1ccc([N+](=O)[O-])cc1[N+](=O)[O-])c1ccccc1O attribute_measured="melting point" bound_operator== quantitative_readout=259
molecule=CC(C)(C)c1nnc(N)s1 attribute_measured="melting point" bound_operator== quantitative_readout=183
molecule="C=C1C(=O)C23C(OC(C)=O)CC4C(C)(C)CCCC4(COC(C)=O)C2C(OC(C)=O)CC1C3OC(C)=O (stereo unspecified)" attribute_measured="melting point" bound_operator== quantitative_readout=226
molecule=CN1CCC(N2CCNCC2)CC1 attribute_measured="melting point" bound_operator== quantitative_readout=31
molecule=C=CCOOC(C)(C)c1ccccc1 attribute_measured="melting point" bound_operator== quantitative_readout=60
molecule=CC(C)(O)C#N attribute_measured="melting point" bound_operator== quantitative_readout=-19
molecule=COc1cc2c(cc1OC)C(=O)C2 attribute_measured="melting point" bound_operator== quantitative_readout=141
molecule=CC[Si](Cl)(Cl)Cl attribute_measured="melting point" bound_operator== quantitative_readout=-106

====

Recorded melting point by entry
ATTRIBUTE MEASURED: melting point (°C)

compound=CCCCNc1ccccc1 units_text=°C quantitative_readout=-12
compound=Clc1ccc2c(Cl)ccnc2c1 units_text=°C quantitative_readout=93
compound=Cc1ccc(C(c2ccc(C)o2)c2ccccc2[N+](=O)[O-])o1 units_text=°C quantitative_readout=80
compound=CC(C)(C)N(NC(=O)c1ccccc1)C(=O)c1ccc(Cl)cc1Cl units_text=°C quantitative_readout=134
compound=CNC(=O)CSP(=O)(OC)OC units_text=°C quantitative_readout=-28
compound=O=[N+]([O-])c1ccc(NN=Cc2cccc3c(Br)ccc([N+](=O)[O-])c23)cc1 units_text=°C quantitative_readout=205
compound="CC(S)C(=O)NCC(=O)O (configuration not stated)" units_text=°C quantitative_readout=96
compound=Cc1cccc2c1C/C2=N/Nc1ccc([N+](=O)[O-])cc1[N+](=O)[O-] units_text=°C quantitative_readout=227

====

Recorded melting point by entry
ATTRIBUTE MEASURED: melting point (°C)

compound=COc1ccc(C(=CCC(=O)O)C(C)(C)C(=O)O)cc1 units_text=°C quantitative_readout=137
compound="CC1(C)CC(O)CC(C)(CN)C1 (configuration not stated)" units_text=°C quantitative_readout=45.5
compound="OCC1OC(OC2C(CO)OC(O)(CO)C2O)C(O)C(O)C1O (configuration not stated)" units_text=°C quantitative_readout=176
compound=CC(=O)C1CC1 units_text=°C quantitative_readout=-68.3
compound=O=C1COc2cc(O)ccc21 units_text=°C quantitative_readout=241
compound=CCCCOC(=O)CC(=O)OCCCC units_text=°C quantitative_readout=-83
compound=Nc1ccccc1/C=C/c1cc(/C=C/c2ccccc2)c([N+](=O)[O-])cc1[N+](=O)[O-] units_text=°C quantitative_readout=193

====

Recorded melting point by entry
ATTRIBUTE MEASURED: melting point (°C)

smiles=Cc1ccc2ccccc2c1N units_text=°C quantitative_readout=32
smiles=Cc1ccc(C(=O)/C=C/c2ccc(-c3ccc(Cl)cc3)o2)o1 units_text=°C quantitative_readout=171
smiles=O=C(O)CC(=O)O units_text=°C quantitative_readout=136
smiles=CCOC(=O)CCC(=O)c1ccc(OC)cc1 units_text=°C quantitative_readout=51
smiles=NCCCN1CCOCC1 units_text=°C quantitative_readout=-15
smiles=C1CCCCNCCC1 units_text=°C quantitative_readout=-19
smiles=O=C1c2ccccc2-c2ccc(O)cc21 units_text=°C quantitative_readout=205
smiles=Nc1cc(C(Cl)=C(Cl)Cl)c(S(N)(=O)=O)cc1S(N)(=O)=O units_text=°C quantitative_readout=203
smiles=O=C1NC(=S)NC(=O)C1=NNc1cccc([N+](=O)[O-])c1 units_text=°C quantitative_readout=330

====

If the reported melting point equals or exceeds 50 °C, assign 1. If not, assign -1.

compound="COC(=O)C(Cl)C(Cl)c1cccc(C(Cl)C(Cl)C(=O)OC)c1 (stereo not drawn)" group=1
compound=CC(C)c1cc(Cl)nc(N)n1 group=1
compound="CC(C)(c1ccc(OCC2CO2)cc1)c1ccc(OCC2CO2)cc1 (stereo not drawn)" group=-1
compound=C=CF group=-1
compound=FC(F)=C(F)C(F)=C(F)F group=-1
compound=C=CCc1cc2c(c(OC)c1OC)OCO2 group=-1
compound=N#C/C(=C/c1ccco1)c1nc(-c2ccc(Br)cc2)cs1 group=1
compound="CCc1cccc(C)c1N(C(=O)CCl)C(C)COC (stereo not drawn)" group=-1
compound=CC(C)(C)[Si](C)(C)ON group=1

Where do these numbers come from? They come from a melting point compilation (Tetko et al.).
